Entries and their measured Emax follow.
# tested.system: M1 muscarinic receptor (Homo sapiens)
# Construct: expressed in transfected cells; host or cells: CHO (M1-CHO)
# assay.details: Functional mobilization of intracellular calcium (FLIPR) in CHO cells expressing M1
# Assay type: cell-based
# test.context: CHO; 100% efficacy = maximum response obtained with the Carbachol control

1) CC(=O)N[C@H]1CC2(CCN(CC(=O)N(C)C)CC2)c2ccccc21 [compound 289]	< 25%

Any idea what Emax was measured for CC(C)COC(=O)N(C)[C@H]1CCC2(CCN(CCC(C)(C)C)CC2)c2ccccc21 [compound 208] ? 25 to 100%

CC(=O)N[C@H]1CC2(CCN(CC(C)(C)C)CC2)c2ccccc21 [compound 243] , same question. 25 to 100%

CC(=O)N[C@H]1CC2(CCN(CCC(C)CCC=C(C)C)CC2)c2ccccc21 (stereo partly drawn) [compound 282] , same question. 25 to 100%

----------
# tested.system: M2 muscarinic receptor (Homo sapiens)
# assay.details: Functional mobilization of intracellular calcium (FLIPR) in CHO cells expressing M2
# test.context: CHO cells expressing M2, FLIPR calcium
Entries and their measured EC50 follow.

Example entries begin here.
1. CC(C)(C)CCN1CCC2(CC[C@H](N3CCCCC3=O)c3ccccc32)CC1	> 5 µM
2. COC(C)(C)CCCC(C)CCN1CCC2(CC[C@H](NC(=O)N(C)C)c3ccccc32)CC1 (stereo partly shown)	> 5 µM
3. CCN(C(=O)C1CCOCC1)[C@H]1CCC2(CCN(CCC(C)(C)C)CC2)c2ccccc21	> 5 µM
4. CCN(C(=O)C1CCC(OC)CC1)[C@H]1CCC2(CCN(CCC(C)(C)C)CC2)c2ccccc21 (stereo partly shown)	< 2 µM
5. COC(=O)CN(C(C)=O)[C@H]1CCC2(CCN(CCC(C)(C)C)CC2)c2ccccc21	> 5 µM
6. CC(C)CCN1CCC2(CC[C@H](N3C(=O)CCC3=O)c3ccccc32)CC1	> 5 µM

Okay, now this compound:
Any idea what EC50 was measured for `CC(C)(C)CCN1CCC2(CCC(=O)c3ccccc32)CC1` ? < 2 µM

----------
Entries and their measured Emax follow.
# tested.system: M1 muscarinic receptor (Homo sapiens, UniProt P11229)
# Construct: expressed in transfected cells; host or cells: CHO (M1-CHO)
# assay.details: Functional mobilization of intracellular calcium (FLIPR) in CHO cells expressing M1
# Type: cell-based
# test.context: CHO; 100% efficacy = maximum response obtained with the Carbachol control

1. CC(C)(C)CCN1CCC2(CC[C@H](NC(=O)C3CCOCC3)c3ccccc32)CC1	25 to 100%
2. CC(C)CCN1CCC2(CC1)CC(C(=O)O)c1ccccc12 (stereo not drawn)	25 to 100%
3. C/C=C(\C)CN1CCC2(CC1)C[C@H](NC(C)=O)c1ccccc12	< 25%

Any idea what Emax was measured for `Cc1ccc2c(c1)C(=O)CC21CCN(C(=O)OC(C)(C)C)CC1` ? < 25%

`CC(C)(C)CCN1CCC2(CC1)C[C@H](NC(=O)c1ccoc1)c1ccccc12` , same question. < 25%

`C=CCCCN1CCC2(CC1)C[C@H](NC(=O)N1CCCC1)c1ccccc12` , same question. < 25%

----------
# tested.system: M1 muscarinic receptor (Homo sapiens)
# Construct: expressed in transfected cells; host or cells: CHO (M1-CHO)
# Sequence (P11229 1-460): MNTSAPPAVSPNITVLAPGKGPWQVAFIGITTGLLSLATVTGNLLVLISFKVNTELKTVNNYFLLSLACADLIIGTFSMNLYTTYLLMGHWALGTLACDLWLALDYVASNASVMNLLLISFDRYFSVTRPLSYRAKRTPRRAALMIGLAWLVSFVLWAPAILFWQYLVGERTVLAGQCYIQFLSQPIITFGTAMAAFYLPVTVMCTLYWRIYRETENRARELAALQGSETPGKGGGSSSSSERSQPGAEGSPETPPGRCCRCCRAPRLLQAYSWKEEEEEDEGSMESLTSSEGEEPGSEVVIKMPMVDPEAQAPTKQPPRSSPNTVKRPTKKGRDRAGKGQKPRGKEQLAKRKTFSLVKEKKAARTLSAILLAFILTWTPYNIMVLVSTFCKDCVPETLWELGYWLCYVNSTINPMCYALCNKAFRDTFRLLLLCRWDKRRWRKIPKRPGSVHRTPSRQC
# assay.details: Functional mobilization of intracellular calcium (FLIPR) in CHO cells expressing M1
# Type: cell-based
# test.context: CHO; 100% = maximum response obtained with the Carbachol control; read-out: M1 Efficacy
Entries and their measured Emax follow.

Any idea what Emax was measured for CC(=O)N[C@@H]1CCC2(CCN(CCC(C)(C)C)CC2)c2ccccc21 [compound 64] ? < 25%

CCN(C(=O)[C@@H](C)OC)[C@H]1CCC2(CCN(CCC(C)(C)C)CC2)c2ccccc21 [compound 116] , same question. 25 to 100%

CN(C)C(=O)N[C@H]1CCC2(CCN(CCC(C)(C)C)CC2)c2ccccc21 [compound 175] , same question. < 25%

CC(=O)N[C@H]1CCC2(CCN(CCC(C)C)CC2)c2ccccc21 [compound 159] , same question. 25 to 100%

CC(C)NC(=O)C1CCC2(CCN(CCC(C)(C)C)CC2)c2ccccc21 (centres unmarked) [compound 35] , same question. < 25%

----------
Entries and their measured EC50 follow.
# tested.system: M1 muscarinic receptor (Homo sapiens)
# assay.details: Functional mobilization of intracellular calcium (FLIPR) in CHO cells expressing M1
# test.context: CHO cells expressing M1, FLIPR calcium

Example entries begin here.
1. C[C@H](C(=O)N[C@H]1CCC2(CCN(CCC(C)(C)C)CC2)c2ccccc21)N1CCCC1=O	< 2000 nM
2. CC(=O)N[C@H]1CCC2(CCN(CC(=O)C(C)(C)C)CC2)c2ccccc21	2000 to 5000 nM
3. CC(CC(C)(C)C)N1CCC2(CC[C@H](NC(=O)N(C)C)c3ccccc32)CC1 (stereo partly shown)	> 5000 nM

Okay, now this compound:
Any idea what EC50 was measured for `CC(C)(C)CCN1CCC2(CC[C@H](NC(=O)CC3CCOCC3)c3ccc(F)cc32)CC1` ? < 2000 nM

----------
# tested.system: M2 muscarinic receptor (Homo sapiens, UniProt P08172)
# Construct: expressed in transfected cells; host or cells: CHO (M2-CHO)
# Sequence (P08172 whole entry): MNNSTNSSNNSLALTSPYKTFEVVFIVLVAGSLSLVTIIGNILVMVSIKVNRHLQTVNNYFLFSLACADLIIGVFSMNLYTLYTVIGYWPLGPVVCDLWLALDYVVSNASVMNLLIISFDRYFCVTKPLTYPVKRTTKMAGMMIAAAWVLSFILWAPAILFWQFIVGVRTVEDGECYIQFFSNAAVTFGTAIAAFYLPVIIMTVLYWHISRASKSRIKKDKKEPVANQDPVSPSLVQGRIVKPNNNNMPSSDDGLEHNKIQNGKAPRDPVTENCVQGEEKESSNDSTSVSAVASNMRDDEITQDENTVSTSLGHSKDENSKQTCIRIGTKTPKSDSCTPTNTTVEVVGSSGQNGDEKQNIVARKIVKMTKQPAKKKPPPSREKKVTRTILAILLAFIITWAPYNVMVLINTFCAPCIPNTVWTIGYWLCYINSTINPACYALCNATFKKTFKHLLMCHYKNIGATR
# assay.details: Functional mobilization of intracellular calcium (FLIPR) in CHO cells expressing M2
# Assay type: cell-based
# test.context: CHO; 100% = maximum response obtained with the Carbachol control; read-out: M2 Efficacy
readout: Emax

Example entries begin here.
1) CC(=O)N1CCCC(C(=O)N[C@H]2CCC3(CCN(CCC(C)(C)C)CC3)c3cc(F)ccc32)C1 (stereo partly drawn)	< 25%
2) CC(C)(C)CCN1CCC2(CC[C@H](NC(=O)C3CCC(=O)N3)c3ccc(F)cc32)CC1 (stereo partly drawn)	< 25%

Any idea what Emax was measured for `CC(C)C[C@@H](C(=O)N[C@@H]1CCC2(CCN(CCC(C)(C)C)CC2)c2ccccc21)N1CCCC1=O` ? < 25%

----------
Entries and their measured Emax follow.
# tested.system: M1 muscarinic receptor (Homo sapiens, UniProt P11229)
# Construct: expressed in transfected cells; host or cells: CHO (M1-CHO)
# assay.details: Functional mobilization of intracellular calcium (FLIPR) in CHO cells expressing M1
# Format: cell-based
# test.context: CHO; 100% = maximum response obtained with the Carbachol control; read-out: M1 Efficacy

1. CN(C(=O)C1CCCC1)[C@H]1CCC2(CCN(CCC(C)(C)C)CC2)c2ccccc21 [compound 178]	< 25%
2. COC(C)(C)CCCC(C)CCN1CCC2(CC[C@H](NC(=O)N(C)C)c3ccccc32)CC1 (stereo partly shown) [compound 19]	< 25%
3. CC(C)C[C@@H](C(=O)N[C@H]1CCC2(CCN(CCC(C)(C)C)CC2)c2ccccc21)N1CCCC1=O [compound 23]	< 25%

Okay, now this molecule:
Any idea what Emax was measured for CC(C)(C)CCN1CCC2(CC[C@H](NS(C)(=O)=O)c3ccccc32)CC1 [compound 1] ? 25 to 100%

----------
# tested.system: M4 muscarinic receptor (Homo sapiens, UniProt P08173)
# Construct: expressed in transfected cells; host or cells: CHO (M4-CHO)
# Sequence (P08173 whole entry): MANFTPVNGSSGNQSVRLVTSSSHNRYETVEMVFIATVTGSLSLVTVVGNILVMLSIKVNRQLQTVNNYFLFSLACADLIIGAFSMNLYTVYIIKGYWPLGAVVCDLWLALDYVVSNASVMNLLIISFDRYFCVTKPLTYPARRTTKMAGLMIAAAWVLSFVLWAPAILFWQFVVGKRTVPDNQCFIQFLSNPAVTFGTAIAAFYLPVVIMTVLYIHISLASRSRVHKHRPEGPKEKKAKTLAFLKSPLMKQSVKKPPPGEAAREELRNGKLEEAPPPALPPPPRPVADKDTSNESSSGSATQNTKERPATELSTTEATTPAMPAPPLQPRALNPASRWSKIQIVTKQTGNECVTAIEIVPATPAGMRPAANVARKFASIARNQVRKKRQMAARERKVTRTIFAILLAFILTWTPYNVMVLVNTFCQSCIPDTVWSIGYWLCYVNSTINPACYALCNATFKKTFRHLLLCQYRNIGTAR
# assay.details: Functional mobilization of intracellular calcium (FLIPR) in CHO cells expressing M4
# Format: cell-based
# test.context: CHO; 100% efficacy = maximum response obtained with the Carbachol control
Entries and their measured Emax follow.

1. CC(=O)NC1CC2(CCN(C(C)C(C)C)CC2)c2ccccc21 (centres unmarked)	25 to 100%
2. CC(C)CCN1CCC2(CC1)C[C@H](NC(=O)C1CC1)c1ccccc12	< 25%
3. CC(C)(C)CCN1CCC2(CC[C@@H](NC(=O)C3CCOCC3)c3ccc(F)cc32)CC1	25 to 100%
4. CCCC(=O)N[C@H]1CC2(CCN(CCC(C)(C)C)CC2)c2ccccc21	25 to 100%

Okay, now this compound:
Any idea what Emax was measured for `CCN(C(=O)CCOC)[C@H]1CCC2(CCN(CCC(C)(C)C)CC2)c2ccccc21` ? 25 to 100%
